Assay: Comment Code material properties: vapor pressure, ClogP, probability of ingredient color instability, odor detection threshold, melamine formaldehyde PMC headspace response ratio and leakage, liquid dish neat product liquid-air partition coefficient
Type: physicochemical
Conditions: cell strings several class symbols together; each letter is one property class of L1
recorded-endpoint: Comment Code

CCCCCOC(=O)c1ccccc1 :: DEFHJK
COc1cc(C)cc(O)c1 :: BCHIK
CC1COCc2cc3c(cc21)C(C)(C)C(C)C3(C)C (stereo not drawn) :: DEFHJK
CC(C)C(=O)OCCc1ccccc1 :: DHJK
CC1=C2CC(C(C)(C)O)CCC2(C)CCC1 (stereo not drawn) :: DFHJK

IN: What measured Comment Code goes with `C[C@@H]1CC[C@H]2C(C)(C)[C@H]3C[C@@]12CC[C@@]3(C)O` ?
OUT: DEFHJK

---

Test: Comment Code material properties: vapor pressure, ClogP, probability of ingredient color instability, odor detection threshold, melamine formaldehyde PMC headspace response ratio and leakage, liquid dish neat product liquid-air partition coefficient
Assay type: physicochemical
Details: Table 1 materials; each letter of the code is one property class (vapor pressure, ClogP, color instability, odor detection threshold, PMC headspace ratio, PMC leakage, liquid dish liquid-air partition coefficient)
recorded-endpoint: Comment Code

Solved entries:
C=C(C)C1CCC(C)(OC(C)=O)CC1 (stereo not shown) :: BDHJK
CC1=CC2C(C(C)C)CCC(C)(O)C2CC1 (stereo not shown) [Material 716] :: DEFHJK
C=CCCC(=O)C1=CCCC(C)(C)C1 :: BDHJK
CC1=CCCC(C)=CCC(C)(C)C=CC1 :: DEFHJK

Attention now turns to another entry.
IN: What measured Comment Code goes with `CCCCCC(=O)Oc1ccc(C)cc1` ?
OUT: DEFHJK
